- System: Prostate carcinoma cell line PC-3
- assay info: In vitro prostate carcinoma cell proliferation inhibition assay (MTT)
- Assay type: cell-based, human
- assay conditions: Homo sapiens, 72 h; PC-3, 3 days incubation, MTT; read-out: IC50 PC-3
Where a name gives a salt, the structure may show the parent alone.
Threshold-based label: IC50 under 7 nM gives label 1, IC50 not under 7 nM gives label 0.

Example results:
CCn1c(SC)nc2c(cnn2Cc2ccc(C(=O)c3ccc(Cl)cc3)cc2)c1=O : label 1
Cn1c(SCc2ccc(C(=O)c3ccc(N4CCC(N5CCCCC5)CC4)nc3)cc2)nc2ccsc2c1=O [Example 158, hydrochloride] : label 1
Cc1cccc2nc(SCc3ccc(C(=O)c4ccc(CSc5nnnn5CCN(C)C)cc4)cc3)n(C)c(=O)c12 : label 1
O=C(c1ccc(Cn2ccn3c(=O)c4c(nc23)CCCC4)cc1)c1ccc(C(F)(F)F)cc1 : label 1
CCn1c(SC)nc2c(ccn2Cc2ccc(C(=O)c3ccc(Cl)cc3)cc2)c1=O : label 1
Cc1csc2nc(SCc3ccc(C(=O)c4ccc(OCCN5CCOCC5)cc4)cc3)n(C)c(=O)c12 : label 1

QUERY: Is 7 nM strictly greater than the compound's reported IC50? compound: `CCc1cccc2nc(SCc3ccc(C(=O)c4ccc(Cl)cc4)cc3)n(C)c(=O)c12`
RESULT: label 1

QUERY: Try the compound `Cc1ccc(C(=O)c2ccc(COc3nc4n(c(=O)c3C)CCCS4)cc2)cc1`
RESULT: label 1

QUERY: Next entry: `Cc1c(OCc2ccc(C(=O)c3ccc(C(F)(F)F)cc3)cc2)nc2n(c1=O)CCCC2`
RESULT: label 1

QUERY: Same question for `Cc1cccc2nc(SCc3ccc(C(=O)c4ccc(C(=O)N5CCC(N6CCCCC6)CC5)cc4)cc3)n(C)c(=O)c12` please.
RESULT: label 1

QUERY: Lookup `Cc1c(OCc2ccc(C(=O)c3ccc(C(F)(F)F)cc3)cc2)nc2ccccn2c1=O`
RESULT: label 0

QUERY: Same question for Cc1cn(C)c2nc(SC(C)c3ccc(C(=O)c4ccc(F)cc4)cc3)n(C)c(=O)c12 (stereo not shown) please.
RESULT: label 0

QUERY: And `CCc1c(C)nc2n(Cc3ccc(C(=O)c4ccc(Cl)cc4)cc3)ccn2c1=O` ?
RESULT: label 1

QUERY: Same read-out for `CC(C)(C)n1ncc2c(cnn2Cc2ccc(C(=O)c3ccc(Cl)cc3)cc2)c1=O` ?
RESULT: label 1

QUERY: What do you get for `Cn1ncc2c(c(Cl)c(Cl)n2Cc2ccc(C(=O)c3ccc(F)cc3)cc2)c1=O` ?
RESULT: label 0
